experimentalSystem: T1, human TL1A extracellular domain with N-terminal HIS and FLAG tag (human, UniProt O95150 72-251)
T1 construct: whole entry named. ~70 kDa fraction purified by gel filtration
T1 sequence: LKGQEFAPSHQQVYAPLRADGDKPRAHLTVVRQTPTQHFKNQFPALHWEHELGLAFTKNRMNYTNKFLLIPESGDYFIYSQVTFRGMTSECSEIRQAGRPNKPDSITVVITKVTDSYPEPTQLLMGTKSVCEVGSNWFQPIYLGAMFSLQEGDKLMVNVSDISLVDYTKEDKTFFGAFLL
assayMethodText: SPR run 2; supernatant on Protein A; TL1A 10 ug/mL; timepoint 220
valueKind: TL1A Binding Level (Late) (RU)
State the answer as a number, implicitly in RU.

# annotated cases, reported TL1A Binding Level (Late) shown
[
  {
    "binder": "320-193 (antibody, human IgG1, name in Kabat numbering, V domains shown, human IgG1, lambda) VH: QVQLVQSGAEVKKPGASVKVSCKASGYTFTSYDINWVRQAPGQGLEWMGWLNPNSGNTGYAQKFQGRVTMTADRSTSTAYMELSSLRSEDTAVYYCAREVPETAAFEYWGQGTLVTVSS VL: QSVLTQPPSVSGAPGQRVTISCSSSSSDIGAGLGVHWYQQLPGTAPKLLIEGYYNRPSGVPDRFSGSKSGTSASLTITGLLPEDEGDYYCQSYDGTLSALFGGGTKLTVLG",
    "scaleUnit": "RU",
    "TL1A Binding Level (Late)": 227
  },
  {
    "binder": "320-203 (antibody, human IgG1, name in Kabat numbering, V domains shown, human IgG1, lambda) VH: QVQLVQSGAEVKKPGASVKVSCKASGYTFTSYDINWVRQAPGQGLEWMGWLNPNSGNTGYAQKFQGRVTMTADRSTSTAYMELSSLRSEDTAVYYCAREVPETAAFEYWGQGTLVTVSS VL: QSVLTQPPSVSGAPGQRVTISCTDSSSDIGAGLGVHWYQQLPGTAPKLLIEGYYNRPSGVPDRFSGSKSGTSASLTITGLLPEDEGDYYCQSYDGTLSALFGGGTKLTVLG",
    "scaleUnit": "RU",
    "TL1A Binding Level (Late)": 24
  }
]

We now examine a further binder.
Documented TL1A Binding Level (Late) of 320-249 (antibody, human IgG1, name in Kabat numbering, V domains shown, human IgG1, lambda) VH: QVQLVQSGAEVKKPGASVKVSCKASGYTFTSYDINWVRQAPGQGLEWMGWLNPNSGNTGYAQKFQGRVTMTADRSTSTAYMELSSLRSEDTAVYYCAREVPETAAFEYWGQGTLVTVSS VL: QSVLTQPPSVSGAPGQRVTISCTSSSSDYGAGLGVHWYQQLPGTAPKLLIEGYYNRPSGVPDRFSGSKSGTSASLTITGLLPEDEGDYYCQSYDGTLSALFGGGTKLTVLG : 28
